These entries and their values trace back to the supplement of paper PMC9942255.

- Test system: Bacillus subtilis DB104 (SP-AmyQ fusion secretion)
- EXPERIMENTAL_PROTOCOL: AmyQ secretion efficiency, weighted average sort bin (1 = best secretion, 10 = worst) (bin number (weighted average, 1-10)); higher = lower secretion efficiency
We begin with a simple list: items and their reported AmyQ secretion efficiency.

Exercise: Find the measured AmyQ secretion efficiency of MKKRLIAPMLLSAASLAFFAMSGSTQAAAY and report it.
Solution: 3.66

Exercise: Find the measured AmyQ secretion efficiency of MKKGIIRKTLVSFVLFFALSTGITGVQAAPA and report it.
Solution: 2

Exercise: Find the measured AmyQ secretion efficiency of MTMLRKIIGWILLLCIIPLFAFTVITSGKEV and report it.
Solution: 6.41

Exercise: Find the measured AmyQ secretion efficiency of MLKKKWMVGLLAGCLAAGGFSYNRFATEN and report it.
Solution: 6.33

Exercise: Find the measured AmyQ secretion efficiency of MKKTIMSFVAVAALSTTAFGAHASSKEI and report it.
Solution: 3.17

----------
We begin with a simple list: items and their reported AmyQ secretion efficiency.
- System: Bacillus subtilis DB104 (SP-AmyQ fusion secretion)
- EXPERIMENTAL_PROTOCOL: AmyQ secretion efficiency, weighted average sort bin (1 = best secretion, 10 = worst) (bin number (weighted average, 1-10)); higher = lower secretion efficiency

Please review the following examples before continuing.
MFNRLFRVCFLAALIMAFTLPNSAYAQKP; 2.14
MLKKIALTLCPAIVGSLLFFTAPLSAHVS; 3.94

Exercise: Find the measured AmyQ secretion efficiency of MAIIIAIIAAVIVIAALITFTSNVRNASPG and report it.
Solution: 7.45

Exercise: Find the measured AmyQ secretion efficiency of MKRMIVRMTLPLLIVCLAFSSFSASARAEEE and report it.
Solution: 3.68

Exercise: Find the measured AmyQ secretion efficiency of MKKAFILSAAAAVGLFTFGASAKEL and report it.
Solution: 5.43

Exercise: Find the measured AmyQ secretion efficiency of MNLRKTYGSSALSLGMLVSAAPVLATSS and report it.
Solution: 6.93

Exercise: Find the measured AmyQ secretion efficiency of MSSSVKIAGVLTVAAAAMTAKMYATAKGN and report it.
Solution: 4.6

Exercise: Find the measured AmyQ secretion efficiency of MRFTKVVGFLSVLGLAAVFPLTAQAAPK and report it.
Solution: 1.91

Exercise: Find the measured AmyQ secretion efficiency of MPYLKRVLLLLVTGLFMSLFAVTATQSAQTG and report it.
Solution: 3.84

Exercise: Find the measured AmyQ secretion efficiency of MKRFSTAYLLLGILCSAAVFLIGAPSRALGAPD and report it.
Solution: 2.52

Exercise: Find the measured AmyQ secretion efficiency of MKKWMILILAGIALFVFISPLKSHKT and report it.
Solution: 7.86

----------
- System: Bacillus subtilis DB104 (SP-AmyQ fusion secretion)
- EXPERIMENTAL_PROTOCOL: AmyQ secretion efficiency, weighted average sort bin (1 = best secretion, 10 = worst) (bin number (weighted average, 1-10)); higher = lower secretion efficiency
AmyQ secretion efficiency class ranges: bin A = under 4, bin B = from 4 up to 7, bin C = 7 and over

Worked cases, answers included:
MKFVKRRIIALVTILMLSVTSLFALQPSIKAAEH; bin A
MKKIWIGMLAAAVLLLRKPKVSLADAA; bin C
MMKKLFHSTLRRRRFFSFFGVQPIHAKKQ; bin C
MPYLKRVLLLLVTGLFMSLFAVTATMSAQTG; bin A
MYSAIIIAIIAAVIVIAALITFNVRNASPG; bin C

Exercise: Bin this entry: MLCVMMLLFSAIASFPVSAQAAKK
Solution: bin B

Exercise: Bin this entry: MKSCKQLIVCSLAAILLLRRKVSFAADS
Solution: bin C

Exercise: Bin this entry: MKKGIIRFLLVSFVLFFALSTGITGAQAAPA
Solution: bin A

Exercise: Bin this entry: MKKVLMAFIICLSLILSVLAAPPSGAKAKRR
Solution: bin A

Exercise: Bin this entry: MAAQTDYKKQVVGILLSLAFVLFVFSRSERHE
Solution: bin B

Exercise: Bin this entry: MKSKWMSGLLLVAVGFSFTQVMDHAGET
Solution: bin B

Exercise: Bin this entry: MKVPKTMLLSTAAGLLLSLTATSCSAHYV
Solution: bin B

Exercise: Bin this entry: MRKKRYGKCRQGSSLTLGSLLPAGYATAKED
Solution: bin C

Exercise: Bin this entry: MRKKRVITCVMAASLTLGSLLPAGYATAKKR
Solution: bin A

Exercise: Bin this entry: MKIRKILLMMALFFMMLISAVPALAAGT
Solution: bin A

Exercise: Bin this entry: MKSKGSIMACLILFSFTITTFINTETISYFSN
Solution: bin C

Exercise: Bin this entry: MKKRKRRVSALTPSTTLAITAKAKEL
Solution: bin B

Exercise: Bin this entry: MKLKSKLLLSCLALSTVFVATTIANLPTH
Solution: bin B

Exercise: Bin this entry: MTKYTVIASILLSFLSVLSGGHHESKAFPV
Solution: bin B

Exercise: Bin this entry: MKLKKRVSMFLVALTMCGGLFVTPAKAVPR
Solution: bin A

Exercise: Bin this entry: MKRKLLSSLAISALSLGLLVSAPTATFAAES
Solution: bin A

Exercise: Bin this entry: MRNLTKTSLLLAGLCTAAQMVFVTHASAATD
Solution: bin A

Exercise: Bin this entry: MLKNRILALFVLSLGLLSFMVTPVSAASK
Solution: bin A

----------
- System: Bacillus subtilis DB104 (SP-AmyQ fusion secretion)
- EXPERIMENTAL_PROTOCOL: AmyQ secretion efficiency, weighted average sort bin (1 = best secretion, 10 = worst) (bin number (weighted average, 1-10)); higher = lower secretion efficiency
AmyQ secretion efficiency class ranges: low-valued (below 3), mid-valued (3 to below 7), high-valued (7 or more)

Worked cases, answers included:
MSLWMSKTLVVLFTIVTFGLVSPPAALMADKP; low-valued
MRKKRVITCVMAASLTLGSLLPAGYATAAPR; low-valued
MTMLRKIIGWILLLCIIPLFAFTVIASPKEV; high-valued
MGLGKKLSVAVAASFMSLSISLPGLQAAEG; low-valued
MIVIILLFISIIVFLKRKKKKIQPQPS; high-valued

Exercise: Bin this entry: MSTIGLLFMLCLAALFTIGFPAQQADAAEA
Solution: low-valued

Exercise: Bin this entry: MKKWMITIAMSTYTYYTLFVFISPLKSHKT
Solution: mid-valued

Exercise: Bin this entry: MKKIVSILFMFGLVMGFSQFQPSTVFGADK
Solution: mid-valued

----------
- Tested on: Bacillus subtilis DB104 (SP-AmyQ fusion secretion)
- EXPERIMENTAL_PROTOCOL: AmyQ secretion efficiency, weighted average sort bin (1 = best secretion, 10 = worst) (bin number (weighted average, 1-10)); higher = lower secretion efficiency
Decision: AmyQ secretion efficiency >= 6 yields met, all other cases yield not met.

Exercise: # bool: AmyQ secretion efficiency of MGGSIILLLAVIIAAAAAGVAFYV >= 6
Solution: met

Exercise: # bool: AmyQ secretion efficiency of MKNMSCKLVVSVTLFFSFLTIGPLVHAQNS >= 6
Solution: not met

Exercise: # bool: AmyQ secretion efficiency of MRKNNNLFFFFMTIFAFLTGLMMFGTITAASASPD >= 6
Solution: not met

Exercise: # bool: AmyQ secretion efficiency of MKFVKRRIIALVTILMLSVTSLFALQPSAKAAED >= 6
Solution: not met

Exercise: # bool: AmyQ secretion efficiency of MLKKKWMVGLLAGCLAAGGFSYNAFYTEN >= 6
Solution: met

Exercise: # bool: AmyQ secretion efficiency of MKKWIYVRRVLSIAGIGGFSVHAASS >= 6
Solution: met

Exercise: # bool: AmyQ secretion efficiency of MKNRKRKLVVSVTLFFSFLTIGPLAHAQNS >= 6
Solution: not met

Exercise: # bool: AmyQ secretion efficiency of MRSYIKVLTMCFLGLILFVPTALFDNS >= 6
Solution: met

Exercise: # bool: AmyQ secretion efficiency of MKKGIIRFLLVSFVLFFALSTGITGVQYAPA >= 6
Solution: not met

Exercise: # bool: AmyQ secretion efficiency of MTMLRKIIGWILLLCIIPLFAFTVIASCKEV >= 6
Solution: met

Exercise: # bool: AmyQ secretion efficiency of MTTTIAWFLPLVCVLLISGWLAPAASASAQTT >= 6
Solution: not met

Exercise: # bool: AmyQ secretion efficiency of MKKVKKRKRKCLSLILSVLAAPPSGAKAESV >= 6
Solution: met

Exercise: # bool: AmyQ secretion efficiency of MNLRKILLSSALSLGMLEDDAPVLATSS >= 6
Solution: not met

----------
- Tested on: Bacillus subtilis DB104 (SP-AmyQ fusion secretion)
- EXPERIMENTAL_PROTOCOL: AmyQ secretion efficiency, weighted average sort bin (1 = best secretion, 10 = worst) (bin number (weighted average, 1-10)); higher = lower secretion efficiency
MEASURED_PROPERTY: AmyQ secretion efficiency
Reply with the value as a number alone.

Please review the following examples before continuing.
MKRLLVSLRVWMVFLMNWVTPDRKTAAPAVY; 6.03
MRKRRKKILALFVLSLGLLSFMVTPVSAASK; 2.65
MKWMCTKCCTYQQLAGGAAQAEAV; 7.81

// next entry
Exercise: Find the measured AmyQ secretion efficiency of MKLAKRVSALTPSTTLAITAKRKEL and report it.
Solution: 8.52
